Cited source: patent US7045516B1

# assay.target: 5-HT3 receptor (Cavia porcellus)
# Construct: From ileum of Hartley male guinea pigs (500 g to 800 g) longitudinal muscle samples of about 20 mm were prepared; from tissue; host or cells: guinea pig ileum longitudinal muscle
# protocol.details: Test for 5-HT3 receptor activating action and antagonism, guinea pig ileum longitudinal muscle contraction
# Type: cell-based
# condition.set: ratio of maximum contraction by compound relative to maximum contraction with 10 μM 5-HT (defined as 1)
measurement.label: Activating action i.a.
Reply briefly: the number, and no unit.

compound=Cl.Nc1cc(Cl)cc2nc(N3CCCNCC3)oc12 assay_result=0.55
compound="Cc1cc(Cl)cc2nc(N3CCN(C)CC3)oc12 [D, reference compound]" assay_result=0.27
compound=Cc1c(Cl)cc2nc(N3CCCNCC3)oc2c1C assay_result=0.14

What value of Activating action i.a. has been recorded for this entry: `Cc1cc2oc(N3CCCNCC3)nc2cc1Cl`
0.08

Field entry: `COc1cc(Cl)cc2nc(N3CCCNCC3)oc12`
0.36

Field entry: Cc1cc(Cl)cc2nc(N3CCNCC3)oc12 [F, reference compound]
0.14

Field entry: `CC(C)(C)OC(=O)Nc1cc(Cl)cc2nc(N3CCCNCC3)oc12`
0.31

Field entry: `Clc1cc(Cl)c2oc(N3CCCNCC3)nc2c1`
0.13

Field entry: `CC(C)C(=O)Nc1cc(Cl)cc2nc(N3CCCNCC3)oc12.Cl`
0.10

* * *

Quick list: EC50 per entry.
# assay.target: 5-HT3 receptor (Cavia porcellus)
# Construct: From ileum of Hartley male guinea pigs (500 g to 800 g) longitudinal muscle samples of about 20 mm were prepared; from tissue; host or cells: guinea pig ileum longitudinal muscle
# protocol.details: Test for 5-HT3 receptor activating action and antagonism, guinea pig ileum longitudinal muscle contraction
# Assay type: cell-based
# condition.set: negative logarithm of molar concentration giving 50% maximum contraction; read-out: Activating action pD2 (converted)
Entry rule: numbers only, all in nM.

Worked examples, 8 molecules total:
molecule=CCc1cc(Cl)cc2nc(N3CCCNCC3)oc12 assay_result=17.8
molecule="Cc1cc(Cl)cc2nc(N3CCN(C)CC3)oc12 [D, reference compound]" assay_result=162
molecule="CC(C)C(=O)Nc1cc(Cl)cc2nc(N3CCCNCC3)oc12.Cl [Example 16, hydrochloride]" assay_result=5620
molecule=Cc1c(Cl)cc2nc(N3CCCNCC3)oc2c1C assay_result=35.5
molecule=CC(=O)Nc1cc(Cl)cc2nc(N3CCCNCC3)oc12 assay_result=3980
molecule="Cc1cc(C)c2oc(N3CCN(C)CC3)nc2c1 [B, reference compound]" assay_result=479
molecule=Cc1cc2oc(N3CCCNCC3)nc2cc1Cl assay_result=191
molecule=Cc1cc(Cl)cc2nc(N3CCCNCC3)oc12 assay_result=33.1

What value of EC50 has been recorded for this entry: CS(=O)(=O)Nc1cc(Cl)cc2nc(N3CCCNCC3)oc12.Cl [Example 14, hydrochloride]
3390

Field entry: Cl.Nc1cc(Cl)cc2nc(N3CCCNCC3)oc12 [Example 8, hydrochloride]
437

* * *

# assay.target: 5-HT3 receptor (Cavia porcellus, UniProt O70212)
# Construct: From ileum of Hartley male guinea pigs (500 g to 800 g) longitudinal muscle samples of about 20 mm were prepared; from tissue; host or cells: guinea pig ileum longitudinal muscle
# Sequence (O70212 20-490): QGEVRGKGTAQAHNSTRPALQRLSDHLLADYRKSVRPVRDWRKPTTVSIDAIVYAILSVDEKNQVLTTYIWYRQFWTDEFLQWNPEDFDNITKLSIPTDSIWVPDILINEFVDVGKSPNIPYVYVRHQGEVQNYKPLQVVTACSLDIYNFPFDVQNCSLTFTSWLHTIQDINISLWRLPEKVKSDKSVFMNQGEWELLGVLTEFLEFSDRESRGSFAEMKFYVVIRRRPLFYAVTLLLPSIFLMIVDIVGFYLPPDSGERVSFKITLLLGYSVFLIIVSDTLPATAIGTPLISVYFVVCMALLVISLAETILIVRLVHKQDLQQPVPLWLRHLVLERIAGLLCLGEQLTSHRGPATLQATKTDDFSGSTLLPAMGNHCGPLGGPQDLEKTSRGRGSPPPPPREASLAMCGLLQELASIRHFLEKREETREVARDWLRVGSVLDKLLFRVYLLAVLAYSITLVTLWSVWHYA
# protocol.details: Test for 5-HT3 receptor activating action and antagonism, guinea pig ileum longitudinal muscle contraction
# Assay type: cell-based
# condition.set: ratio of maximum contraction by compound relative to maximum contraction with 10 μM 5-HT (defined as 1)
Labelling: Activating action i.a. reported below 0.1 becomes T; at or above becomes F.

Some entries whose results are on file:
compound=Clc1cc(NCc2ccccc2)c2oc(N3CCCNCC3)nc2c1 assigned_label=T
compound="Cc1cc(Cl)cc2nc(N3CCCN(C)CC3)oc12 [E, reference compound]" assigned_label=F
compound=Cc1cc(Cl)cc2nc(N3CCCNCC3)oc12 assigned_label=F
compound="Cc1cc(C)c2oc(N3CCNCC3)nc2c1 [C, reference compound]" assigned_label=F

# TODO verify Activating action i.a. < 0.1 strictly for this compound: `CC(=O)Nc1cc(Cl)cc2nc(N3CCCNCC3)oc12`
F

Field entry: `Cc1c(Cl)cc2nc(N3CCCNCC3)oc2c1Cl`
T

Field entry: c1ccc2oc(N3CCCNCC3)nc2c1 [A, 2-(1-homopiperazinyl)benzoxazole, reference compound]
F

Field entry: Cc1cc(C)c2oc(N3CCN(C)CC3)nc2c1 [B, reference compound]
F

Field entry: `CS(=O)(=O)Nc1cc(Cl)cc2nc(N3CCCNCC3)oc12.Cl`
F
